Test system: Trypanosoma brucei
test-summary: Stabilization of 5'-FAM /3'-Tamra labelled Trypanosoma brucei EBR1-FT G-quadruplex DNA in presence of 1 x 10^-5 M dsDNA competitior by FRET melting assay relative to control
Active and inactive are the calls of the source. No cut-off for these calls is given here.
Write down one outcome, taken from Yes = active, No = inactive

Hello, I am checking results. What call was entered for CN(C)CCCc1cc2c3c(c(NCCCn4cc(CCO[C@@H]5O[C@H](CO)[C@@H](O)[C@H](O)[C@H]5O)nn4)cc4c3c1C(=O)N(CCCN(C)C)C4=O)C(=O)N(CCCN(C)C)C2=O ?
No

Hello, I am checking results. What call was entered for CN(C)CCCN1C(=O)c2ccc3c4c(c(NCCCn5cc(COCCOCCOCCO[C@@H]6O[C@H](CO)[C@@H](O[C@@H]7O[C@H](CO)[C@H](O)[C@H](O)[C@H]7O)[C@H](O)[C@H]6O)nn5)cc(c24)C1=O)C(=O)N(CCCN(C)C)C3=O ?
Yes

Hello, I am checking results. What call was entered for CN(C)CCCN1C(=O)c2ccc3c4c(c(NCCCn5cc(CCO[C@@H]6O[C@H](CO)[C@@H](O)[C@H](O)[C@H]6O)nn5)cc(c24)C1=O)C(=O)N(CCCN(C)C)C3=O ?
Yes

Hello, I am checking results. What call was entered for CN(C)CCCN1C(=O)c2ccc3c4c(c(NCCCn5cc(COCCOCCOCCO[C@@H]6O[C@H](CO)[C@@H](O)[C@H](O)[C@H]6O)nn5)cc(c24)C1=O)C(=O)N(CCCN(C)C)C3=O ?
Yes
